# EXPERIMENT_NOTES: basal HepG2 mitochondrial membrane potential changes, profiling panel, cell-based, JC-1 fluorescence, 24 h, 100 nL compound (AID 1167)
# MEASUREMENT_CONDITIONS: higher = more signal
Quick list: z-score per entry.

{"columns": ["COMPOUND", "z-score"],
 "data": [
  ["CC(C)(C)OC(=O)CC[C@]1(C(=O)NCc2ccccc2)COC(c2ccc(OCCCO)cc2)=N1", -0.0474],
  ["C=CCC(OC(C)=O)[C@@H]1[C@@H](N(Cc2cccc3ccccc23)C(=O)Cc2ccc(OC)cc2)c2cc(OCCCO)ccc2N1C(=O)Cc1ccc(OC)cc1 (some centres undefined)", 2.38],
  ["COC(=O)C(CC#Cc1ccc2c(c1)[C@]1(C(=O)N2)[C@H](C(=O)O)[C@H]2C(=O)O[C@H](c3ccccc3)[C@H](c3ccccc3)N2[C@@H]1c1ccc(OCCO)cc1)C(=O)OC", -0.532],
  ["COCCCNC(=O)[C@@]1(CCS(=O)(=O)c2ccccc2)N=C(c2ccc(OCCCO)cc2)O[C@H]1c1ccccc1CN=[N+]=[N-]", 1.02],
  ["COc1ccc([Si](C)(C)[C@H]2[C@H](CC(=O)N(CCO)Cc3ccccc3)O[C@@]3(C(=O)N(Cc4ccc(N5CCOC5=O)cc4)c4ccccc43)[C@@H]2C)cc1", 1.51],
  ["CC(C)NC(=O)[C@@H]1c2ccccc2C(=O)N(Cc2cc(F)cc(C(F)(F)F)c2)[C@H]1c1ccc(CO)cc1", 1.59],
  ["CC(C)C(CO)N1C(=O)[C@@H]2[C@H]3C(=O)OCC=C[C@H]3OC23C=CCN(Cc2ccccc2)C(=O)[C@@H]13 (some centres undefined)", 0.341],
  ["CCOC(=O)C[C@H]1[C@H](OC(=O)c2ccc(-c3ccccc3)cc2)[C@@H](NC(=O)c2ccccc2)c2cc(OCCCO)ccc2N1C(=O)c1ccccc1", 3.28],
  ["COC(=O)C1=CC(c2ccc(CO)cc2)=CC(c2cccs2)N(C)C=C1C(=O)OC (centres undefined)", 0.636],
  ["O=C(N1CCCCC1)[C@@]1(Cc2ccccc2)N=C(c2ccc(OCCCO)cc2)O[C@H]1c1ccccc1", -1.61],
  ["O=C1c2ccccc2C(=O)c2cc([C@H]3Oc4ccccc4S(=O)(=O)N4CCC[C@@H]34)ccc21", 2.04],
  ["CC(C)N1C(=O)c2ccccc2[C@@H](C(=O)NCc2ccccc2)[C@@H]1c1ccc(CO)cc1", 0.617],
  ["C=CCOC(=O)[C@H]1[C@@H]2C(=O)O[C@@H](c3ccccc3)[C@@H](c3ccccc3)N2[C@@H](c2ccc(OCCOC(=O)[C@H]3C[C@H]4C(=O)N5CCC[C@H]5C(=O)N4[C@H]3c3cccc(OCCO)c3)cc2)[C@]12C(=O)Nc1ccccc12", -0.558],
  ["COc1ccc(C#Cc2ccc3c(c2)[C@]2(C(=O)N3)[C@H](c3ccc(O)cc3)N3[C@H](c4ccccc4)[C@H](c4ccccc4)OC(=O)[C@H]3[C@@H]2C(=O)N2CCN(c3ncccn3)CC2)cc1", -0.16]
]}

---

# EXPERIMENT_NOTES: RPMI8226 myeloma cell viability, profiling panel, resazurin fluorescence, basal, 24 h, PK04 Diversity Set (AID 1180);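 note: RPMI8826 multiple myeloma cell line at 5000 cells per well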
# MEASUREMENT_CONDITIONS: higher = more signal

{"columns": ["MOLECULE", "z-score"],
 "data": [
  ["CC(C)C[C@@H]1NC(=O)[C@@]23C(=O)N[C@@H](Cc4ccccc4)C2[C@H](C)[C@@]2(C)O[C@H]2C3/C=C/C/C=C\\CNC(=O)[C@H](Cc2ccccc2)NC1=O (some centres undefined)", 0.468],
  ["COC(=O)C(CC#Cc1ccc2c(c1)[C@]1(C(=O)N2)[C@H](C(N)=O)[C@H]2C(=O)O[C@H](c3ccccc3)[C@H](c3ccccc3)N2[C@@H]1c1ccc(O)cc1)C(=O)OC", 1.27],
  ["CC(C)[C@@H](C(=O)O)n1cc(-c2ccccn2)nn1", 0.386],
  ["CC(C)[Si](C#C[Si](C(C)C)(C(C)C)C(C)C)(O[C@H](C)c1cn([C@H](C)c2ccccc2)nn1)C(C)C", 2.41]
]}

---

Quick list: z-score per entry.
# ASSAY_SYSTEM: NADPH oxidase 5 (Homo sapiens) (UniProt Q96PH1)
# Sequence (Q96PH1 whole entry, looked up): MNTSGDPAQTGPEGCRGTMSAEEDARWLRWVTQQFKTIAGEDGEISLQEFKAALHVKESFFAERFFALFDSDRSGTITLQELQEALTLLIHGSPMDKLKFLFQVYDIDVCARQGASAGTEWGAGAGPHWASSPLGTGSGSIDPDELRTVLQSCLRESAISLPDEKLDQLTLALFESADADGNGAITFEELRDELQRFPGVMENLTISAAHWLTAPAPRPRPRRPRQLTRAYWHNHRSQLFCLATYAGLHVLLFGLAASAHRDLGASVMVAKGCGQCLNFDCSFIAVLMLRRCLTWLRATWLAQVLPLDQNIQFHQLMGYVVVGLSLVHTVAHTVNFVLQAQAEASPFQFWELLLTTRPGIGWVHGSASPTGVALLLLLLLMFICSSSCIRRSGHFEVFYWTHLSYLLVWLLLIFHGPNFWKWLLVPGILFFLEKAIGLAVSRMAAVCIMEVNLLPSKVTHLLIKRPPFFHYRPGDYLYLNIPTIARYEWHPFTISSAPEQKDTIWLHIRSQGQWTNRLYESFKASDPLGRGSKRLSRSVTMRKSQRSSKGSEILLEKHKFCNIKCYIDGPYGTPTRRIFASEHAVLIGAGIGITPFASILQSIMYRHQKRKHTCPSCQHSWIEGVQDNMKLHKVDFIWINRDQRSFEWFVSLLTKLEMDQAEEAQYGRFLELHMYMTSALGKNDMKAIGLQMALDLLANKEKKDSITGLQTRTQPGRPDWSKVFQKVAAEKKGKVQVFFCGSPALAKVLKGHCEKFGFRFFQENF
# EXPERIMENT_NOTES: NOX5-dependent H2O2 signal modulators, primary screen, NOX inhibitor project, cell-based, HEK293-NOX5, Amplex Red fluorescence (AID 1161)
# MEASUREMENT_CONDITIONS: HEK293-NOX5, ionomycin, 45 min, higher = more signal

{"columns": ["MOLECULE", "z-score"],
 "data": [
  ["C=CCC(OC(C)=O)[C@@H]1[C@@H](N(Cc2cccc3ccccc23)C(=O)c2cccc3ccccc23)c2cc(OCCCO)ccc2N1C(=O)Cc1ccc(OC)cc1 (stereo partly specified)", 1.46],
  ["C[N+](C)(C)CCCC[C@@H]1NC(=O)[C@@H]2C[C@H](C(=O)NCCCCCNC(=O)CS)[C@H](c3ccc(O)cc3)N2C1=O", 2.12],
  ["Cc1ccc(S[C@]2(C(=O)NCCN3CCOCC3)CC(=O)N(Cc3cc(C(F)(F)F)cc(C(F)(F)F)c3)[C@@H]2c2ccc(CO)cc2)cc1", 0.754],
  ["COCCOC(=O)N1C(=O)[C@@]2(c3cc(C#CCNC(N)=O)ccc31)[C@H](c1ccccc1OCCO)N1[C@H](c3ccccc3)[C@H](c3ccccc3)OC(=O)[C@H]1[C@@H]2C(=O)Nc1nc2ccccc2s1", 1.25],
  ["COc1ccc([Si](C)(C)[C@@H]2[C@@H](CCn3cc(CCO)nn3)O[C@]3(C(=O)N(Cc4ccc(N5C(=O)c6cccc7cccc5c67)cc4)c4ccccc43)[C@H]2C)cc1", 1.42],
  ["O=C1c2ccccc2[C@@]2(Cc3ccccc3N(CC(F)(F)F)C2=O)[C@H](c2ccc(CO)cc2)N1Cc1ccccc1C(F)(F)F", 1.09]
]}

---

# EXPERIMENT_NOTES: non-specific cell cytotoxicity, dose response, cytotoxicity control for PAX8 inhibitor project, plate reader, dry powder samples (AID 743021)
# MEASUREMENT_CONDITIONS: cell line, non-specific cytotoxicity counter-screen; series mostly up to 35 µM
Results with a measured potency or affinity are listed apart. Results filed as inconclusive are left out. Active and inactive are the calls of the source. The rule behind the calls is not given here.

{"columns": ["SMILES_REPRESENTATION", "activity change, negative = cytotoxicity"],
 "data": [
  ["CCc1cc(-c2n[nH]c(C)c2-c2nc3ccccc3n2C)c(O)cc1O", "inactive"],
  ["C[C@@H]1CN([C@H](C)CO)C(=O)c2c(c3ccccc3n2C)-c2ccccc2CO[C@H]1CN(C)S(=O)(=O)c1cccc(F)c1", "inactive"],
  ["O=C(C[C@@H]1CC[C@@H]2[C@H](COC[C@@H](O)CN2C(=O)Nc2ccc(Cl)c(Cl)c2)O1)NCc1ccc(Cl)cc1", "inactive"],
  ["CC(C)(C)c1nnc(NC(=O)CCS(=O)(=O)c2ccccc2)s1", "inactive"]
]}

---

# ASSAY_SYSTEM: Neurogenic locus notch homolog protein 2 (Homo sapiens)
# EXPERIMENT_NOTES: Notch2 binders on small-molecule microarrays, primary screen, biochemical, small-molecule microarray, 635 nm fluorescence, stem cell growth factors (AID 1073)
# MEASUREMENT_CONDITIONS: Notch2 binding, higher = more signal
# cutoff 0.7 applies to composite z-score; >= gives yes (1), < gives no (0)

{"columns": ["COMPOUND", "ASSAY_SYSTEM", "CATEGORY"],
 "data": [
  ["C/C=C/[C@@H](CCn1cc(CCO[Si](C(C)C)(C(C)C)C(C)C)nn1)[Si](C)(C)c1ccc(OC)cc1", "Neurogenic locus notch homolog protein 2 (Homo sapiens)", "no (0)"],
  ["C=CCC1(CC=C)C[C@H]2CO[C@H](c3ccc(OC)cc3)N2C1=O", "Neurogenic locus notch homolog protein 2 (Homo sapiens)", "no (0)"],
  ["O=C(NCc1ccccc1)[C@@H]1c2ccccc2C(=O)N(Cc2ccccc2Cl)[C@H]1c1ccc(CO)cc1", "Neurogenic locus notch homolog protein 2 (Homo sapiens)", "yes (1)"],
  ["CC(C)N1CC=CC23O[C@@H]4/C=C\\CCCOC(=O)C4[C@H]2C(=O)N(CCCO)[C@@H]3C1=O (some centres undefined)", "Neurogenic locus notch homolog protein 2 (Homo sapiens)", "no (0)"],
  ["CC(CO)N1C(=O)[C@@H]2C3C(=O)OCCC/C=C\\[C@H]3OC23C=CCN(Cc2ccccc2)C(=O)[C@@H]13 (some centres undefined)", "Neurogenic locus notch homolog protein 2 (Homo sapiens)", "no (0)"],
  ["C=C(C(=O)CC[C@@H](OC(C)=O)c1ccccc1OCCO)C(C)C", "Neurogenic locus notch homolog protein 2 (Homo sapiens)", "no (0)"],
  ["CC(C)NC(=O)[C@@H]1c2ccccc2C(=O)N(Cc2cc(F)cc(C(F)(F)F)c2)[C@H]1c1ccc(CO)cc1", "Neurogenic locus notch homolog protein 2 (Homo sapiens)", "no (0)"],
  ["C=CCC(OC(C)=O)[C@@H]1[C@@H](N(Cc2cccc3ccccc23)C(=O)c2cccc3ccccc23)c2cc(OCCCO)ccc2N1C(=O)Cc1ccc(OC)cc1 (some centres undefined)", "Neurogenic locus notch homolog protein 2 (Homo sapiens)", "no (0)"],
  ["O=C1O[C@H](c2ccccc2)[C@H](c2ccccc2)N2[C@H]1[C@@H](C(=O)NC[C@H](O)c1ccccc1)[C@]1(C(=O)Nc3ccc(C#CC4(O)CCCCCC4)cc31)[C@H]2c1ccc(O)cc1", "Neurogenic locus notch homolog protein 2 (Homo sapiens)", "yes (1)"],
  ["COCCCNC(=O)[C@@]1(Cc2ccccc2)N=C(c2ccc(OCCCO)cc2)O[C@H]1c1ccccc1N=[N+]=[N-]", "Neurogenic locus notch homolog protein 2 (Homo sapiens)", "yes (1)"],
  ["COc1ccc([Si](C)(C)[C@H]2[C@H](CC(=O)N(CCO)Cc3ccccc3)O[C@@]3(C(=O)N(Cc4ccc(N5CCOC5=O)cc4)c4ccccc43)[C@@H]2C)cc1", "Neurogenic locus notch homolog protein 2 (Homo sapiens)", "no (0)"],
  ["C=CCNC(=O)[C@@H]1[C@H]2C(=O)O[C@H](c3ccccc3)[C@H](c3ccccc3)N2[C@H](c2ccc(O)cc2)[C@@]12C(=O)Nc1ccc(C#Cc3ccc(OC)cc3)cc12", "Neurogenic locus notch homolog protein 2 (Homo sapiens)", "yes (1)"]
]}
